- Assay Target: EGFR(L858R_T790M_C797S) (aa695-end, Invitrogen) (Homo sapiens, UniProt P00533, C797S/L858R/T790M)
- Sequence (P00533 695-1210 T790M/C797S/L858R): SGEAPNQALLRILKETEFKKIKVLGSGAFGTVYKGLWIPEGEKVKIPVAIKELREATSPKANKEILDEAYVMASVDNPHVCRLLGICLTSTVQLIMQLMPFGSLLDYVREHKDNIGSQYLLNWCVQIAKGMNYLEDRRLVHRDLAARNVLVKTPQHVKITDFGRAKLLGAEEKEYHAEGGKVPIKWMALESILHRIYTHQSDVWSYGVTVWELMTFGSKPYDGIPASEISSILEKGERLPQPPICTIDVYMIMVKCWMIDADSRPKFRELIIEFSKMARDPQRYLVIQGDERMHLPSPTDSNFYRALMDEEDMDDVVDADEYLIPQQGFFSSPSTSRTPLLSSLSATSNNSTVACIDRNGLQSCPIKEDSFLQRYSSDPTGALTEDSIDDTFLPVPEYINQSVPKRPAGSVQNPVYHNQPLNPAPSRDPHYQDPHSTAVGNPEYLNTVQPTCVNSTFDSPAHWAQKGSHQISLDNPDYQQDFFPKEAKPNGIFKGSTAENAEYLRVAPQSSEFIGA
- Test Summary: Biochemical EGFR inhibition assay (TR-FRET), L858R/T790M/C797S mutant
- Assay Conditions: ATP at Km, 15 min pre-incubation, 60 min reaction; read-out: LR_TM_CS (Km ATP) IC50
Metric Name: pIC50
By convention, pIC50 is the negative base-10 log of a molar concentration.

>  <Molecule>
CNC(=O)N1CCc2cccc(Nc3nc(Nc4ccc(N5CCC(N6CCN(C)CC6)CC5)cc4OC)ncc3Cl)c21

>  <pIC50>
7.42

$$$$
>  <Molecule>
COc1cc(N2CCC(N(C)C)CC2)c(C)cc1Nc1nc(Nc2cccc3c2N(S(C)(=O)=O)CC3)c2cc[nH]c2n1

>  <pIC50>
9.33

$$$$
>  <Molecule>
COc1cc(N2CCC(N3CCN(C)C4(CC4)C3)CC2)ccc1Nc1ncc(Br)c(Nc2cccc3c2N(S(C)(=O)=O)CC3)n1

>  <pIC50>
10.00

$$$$
>  <Molecule>
COc1cc(N2CCC(N3CCN(C)CC3)CC2)ccc1Nc1ncc(Cl)c(Nc2cccc3c2N(S(C)(=O)=O)CC3C)n1 (stereo not drawn)

>  <pIC50>
9.27

$$$$

Input: Assign pIC50 to the following record: COc1cc(N2CC3(CN(C)C3)C2)c(F)cc1Nc1nc(Nc2cccc3c2N(S(C)(=O)=O)CC3)c2cc[nH]c2n1
Output: 8.62

Input: Assign pIC50 to the following record: COc1cc(C2CCC(N(C)C)CC2)c(C)cc1Nc1nc(Nc2cccc3c2N(S(C)(=O)=O)CC3)c2cc[nH]c2n1 (stereo not drawn)
Output: 8.47

Input: Assign pIC50 to the following record: COc1cc(N2CCC(N(C)C)CC2)ccc1Nc1ncc(Cl)c(Nc2cccc3c2N(S(C)(=O)=O)CC3)n1
Output: 9.39

Input: Assign pIC50 to the following record: COc1cc(N2CCCN(C)CC2)c(C)cc1Nc1nc(Nc2cccc3c2N(S(C)(=O)=O)CC3)c2cc[nH]c2n1
Output: 8.70

Input: Assign pIC50 to the following record: COc1cc(N2CCC(N3CCN(C)CC3)CC2)ccc1Nc1ncc(Cl)c(Nc2cccc3c2N(C(C)=O)CC3)n1
Output: 8.17

Input: Assign pIC50 to the following record: COc1cc(N2CCC(N3CCN(C)CC3)CC2)ccc1Nc1ncc(Cl)c(Nc2ccc(C)c3c2N(S(C)(=O)=O)CC3)n1
Output: 9.57

Input: Assign pIC50 to the following record: COc1cc(N2CCC(N3CCN(C)CC3)CC2)ccc1Nc1nc(Nc2cccc3c2N(S(C)(=O)=O)CC3)c2cc[nH]c2n1
Output: 8.98

Input: Assign pIC50 to the following record: COc1cc(N2C[C@@H](C)N(C)[C@@H](C)C2)c(C)cc1Nc1ncc(Br)c(Nc2cccc3c2N(S(C)(=O)=O)CC3)n1
Output: 9.40
